TESTED_TARGET: FimHL (Escherichia coli, UniProt P08191)
Construct: Purified FimHL (10 μM) in the absence or presence of mannoside (100 μM)
Sequence (P08191 22-179): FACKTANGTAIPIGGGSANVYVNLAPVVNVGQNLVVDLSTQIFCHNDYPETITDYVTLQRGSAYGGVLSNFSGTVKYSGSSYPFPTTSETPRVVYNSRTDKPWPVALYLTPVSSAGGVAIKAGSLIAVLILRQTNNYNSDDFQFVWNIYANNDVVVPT
PROTOCOL: Differential scanning fluorimetry (DSF) with purified FimHL
Format: binding
RUN_CONDITIONS: FimHL 10 μM with mannoside 100 μM, SYPRO Orange, HEPES pH 7.5; Tm from Boltzmann fit
READOUT: DSF Melting Temp (°C)

MOL	UNIT_OF_MEASUREMENT	MEASUREMENT
Cc1cc(-c2ccc3ccnc(N)c3c2)ccc1[C@@H](O)[C@H]1O[C@H](CO)[C@@H](O)[C@H](O)[C@@H]1O	°C	77.7
Cc1cc(-c2ccc3cc[nH]c(=O)c3c2)ccc1[C@@H](O)[C@H]1O[C@H](CO)[C@@H](O)[C@H](O)[C@@H]1O	°C	77.5
Cc1cc(-c2ccc3c(c2)C(=O)NCC3)ccc1[C@@H](O)[C@H]1O[C@H](CO)[C@@H](O)[C@H](O)[C@@H]1O	°C	76.06
Cc1cc(-c2cccc3cnccc23)ccc1[C@@H](O)[C@H]1O[C@H](CO)[C@@H](O)[C@H](O)[C@@H]1O	°C	74.6
